# measured_on: MerTK (Homo sapiens)
# Construct: endogenous in cells; host or cells: Jurkat cells
# Sequence (Q12866 21-999): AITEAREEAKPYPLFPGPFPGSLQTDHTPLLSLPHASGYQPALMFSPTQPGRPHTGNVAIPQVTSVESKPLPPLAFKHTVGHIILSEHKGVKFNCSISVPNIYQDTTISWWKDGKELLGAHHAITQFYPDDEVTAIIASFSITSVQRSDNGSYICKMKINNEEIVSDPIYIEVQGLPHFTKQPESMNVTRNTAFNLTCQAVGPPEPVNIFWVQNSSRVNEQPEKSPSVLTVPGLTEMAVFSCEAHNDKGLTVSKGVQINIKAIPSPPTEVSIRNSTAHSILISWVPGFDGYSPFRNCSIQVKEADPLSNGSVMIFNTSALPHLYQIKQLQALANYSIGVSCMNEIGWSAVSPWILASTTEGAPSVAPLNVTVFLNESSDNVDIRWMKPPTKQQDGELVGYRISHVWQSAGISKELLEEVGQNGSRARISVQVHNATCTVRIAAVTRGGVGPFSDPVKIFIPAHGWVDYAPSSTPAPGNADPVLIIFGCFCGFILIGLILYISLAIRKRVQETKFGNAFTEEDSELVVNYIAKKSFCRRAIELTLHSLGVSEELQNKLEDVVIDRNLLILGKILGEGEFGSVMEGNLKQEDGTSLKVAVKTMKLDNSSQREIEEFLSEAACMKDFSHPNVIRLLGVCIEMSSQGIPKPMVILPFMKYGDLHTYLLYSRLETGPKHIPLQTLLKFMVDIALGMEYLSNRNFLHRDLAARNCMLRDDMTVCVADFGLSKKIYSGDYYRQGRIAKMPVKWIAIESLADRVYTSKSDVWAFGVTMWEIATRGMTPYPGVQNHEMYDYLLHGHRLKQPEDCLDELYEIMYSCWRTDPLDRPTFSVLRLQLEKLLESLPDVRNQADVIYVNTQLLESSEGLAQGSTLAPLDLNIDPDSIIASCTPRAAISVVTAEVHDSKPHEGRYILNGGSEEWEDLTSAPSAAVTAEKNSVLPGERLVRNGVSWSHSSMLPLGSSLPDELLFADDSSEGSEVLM
# assay_info: MerTk degradation in Jurkat cells (Western blot)
# Format: cell-based
# study_conditions: Jurkat, 4 h, 0.001-1 μM, 4 hour-incubation at 37° C., read-out: Jurkat Max % MerTK Degradation
recorded_endpoint: Dmax

molecule=CCCCNc1ncc2c(C3=CCN(CCOCCOCCOCCOCCCc4ccc5c(c4)n(C)c(=O)n5[C@H]4CCC(=O)NC4=O)CC3)cn([C@H]3CC[C@H](O)CC3)c2n1 measured_on="MerTK (Homo sapiens)" recorded_endpoint=Dmax reported="> 50%"
molecule="CCC[C@@H](C)Nc1ncc2c(-c3ccc(CN4CCN(CCCO[C@H]5CCN(Cc6ccc7c(c6)n(C)c(=O)n7C6CCC(=O)NC6=O)C5)CC4)cc3)cn([C@H]3CC[C@H](O)CC3)c2n1 (some centres unmarked)" measured_on="MerTK (Homo sapiens)" recorded_endpoint=Dmax reported="> 50%"
molecule="C[C@@H](CC(F)(F)F)Nc1ncc2c(-c3ccc(CN4CCN(CCCOCCCc5ccc6c(c5)n(C)c(=O)n6C5CCC(=O)N(C)C5=O)CC4)cc3)cn([C@H]3CC[C@H](O)CC3)c2n1 (some centres unmarked)" measured_on="MerTK (Homo sapiens)" recorded_endpoint=Dmax reported="< 20%"
molecule="CN1CCN(Cc2ccc(-c3ccc(CO[C@H]4CCC[C@@H]4NC(=O)c4cc(-c5cnn(CCCc6cccc7c6n(C)c(=O)n7C6CCC(=O)NC6=O)c5)cnc4N)cc3)cc2)CC1 (some centres unmarked)" measured_on="MerTK (Homo sapiens)" recorded_endpoint=Dmax reported="< 20%"

# ---- query molecule ----
// field: Dmax; key: Cn1c(=O)n([C@H]2CCC(=O)NC2=O)c2ccc(CCOCCN3CCN(Cc4cn([C@H]5CC[C@H](O)CC5)c5nc(NCCC(F)(F)F)ncc45)CC3)cc21 ; value = < 20%

###

# measured_on: MerTK (Homo sapiens)
# Construct: endogenous in cells; host or cells: Jurkat cells
# assay_info: MerTk degradation in Jurkat cells (Western blot)
# Type: cell-based
# study_conditions: Jurkat, 4 h, 0.001-1 μM, 4 hour-incubation at 37° C., read-out: Jurkat Max % MerTK Degradation
recorded_endpoint: Dmax

// worked examples, Dmax included
compound="Cc1ncsc1-c1ccc(CNC(=O)[C@@H]2C[C@@H](O)CN2C(=O)[C@@H](NC(=O)CCCCCCN2CCN(Cc3ccc(-c4cn([C@H]5CC[C@H](O)CC5)c5nc(NCCC(F)(F)F)ncc45)cc3)CC2)C(C)(C)C)cc1 [I-162]" recorded_endpoint=Dmax reported="< 20%"
compound="Cn1c(=O)n([C@H]2CCC(=O)NC2=O)c2ccc(CCn3cc(CN4CCN(Cc5ccc(-c6cn([C@H]7CC[C@H](O)CC7)c7nc(NCCC(F)(F)F)ncc67)cc5)CC4)nn3)cc21 [I-114]" recorded_endpoint=Dmax reported="> 50%"
compound="Cn1c(=O)n([C@H]2CCC(=O)NC2=O)c2ccc(C#CCOCCN3CC(N4CCN(Cc5ccc(-c6cn([C@H]7CC[C@H](O)CC7)c7nc(NCCC(F)(F)F)ncc67)cc5)CC4)C3)cc21 [I-92]" recorded_endpoint=Dmax reported="> 50%"

// field: Dmax; key: Cn1c(=O)n(C2CCC(=O)NC2=O)c2ccc(C#CCOCCN3CCC(N4CCN(Cc5ccc(-c6cn([C@H]7CC[C@H](O)CC7)c7nc(NCCC(F)(F)F)ncc67)cc5)CC4)C3)cc21 (some centres unmarked) [I-85] ; value = > 50%

// field: Dmax; key: CCCCNc1ncc2c(-c3ccc(CN4CCN(CCOCCOCCOCCCc5ccc6c(c5)n(C)c(=O)n6[C@H]5CCC(=O)NC5=O)CC4)cc3)nn([C@H]3CC[C@H](O)CC3)c2n1 [I-49] ; value = > 50%

###

Measured Dmax, listed per entry.
# measured_on: MerTK (Homo sapiens, UniProt Q12866)
# Construct: endogenous in cells; host or cells: Jurkat cells
# assay_info: MerTk degradation in Jurkat cells (Western blot)
# Assay type: cell-based
# study_conditions: Jurkat, 4 h, 0.001-1 μM, 4 hour-incubation at 37° C., read-out: Jurkat Max % MerTK Degradation

// worked examples, Dmax included
compound=CCCCNc1ncc2c(-c3ccc(S(=O)(=O)N4CCN(C(=O)COCCOCCOCCOCC(=O)N[C@H](C(=O)N5C[C@H](O)C[C@H]5C(=O)NCc5ccc(-c6scnc6C)cc5)C(C)(C)C)CC4)cc3)nn([C@H]3CC[C@H](O)CC3)c2n1 measured_on="MerTK (Homo sapiens, UniProt Q12866)" reported="20 to 50%"
compound="CN1CCN(Cc2ccc(-c3ccc(CO[C@H]4CCC[C@@H]4NC(=O)c4cc(-c5cnn(CCOCCOCCCc6cccc7c6n(C)c(=O)n7C6CCC(=O)NC6=O)c5)cnc4N)cc3)cc2)CC1 (some centres unmarked)" measured_on="MerTK (Homo sapiens, UniProt Q12866)" reported="20 to 50%"
compound=Cn1c(=O)n([C@H]2CCC(=O)NC2=O)c2ccc(CCOCCN3CCN(Cc4cccc(-c5cn([C@H]6CC[C@H](O)CC6)c6nc(NCCC(F)(F)F)ncc56)c4)CC3)cc21 measured_on="MerTK (Homo sapiens, UniProt Q12866)" reported="> 50%"

// field: Dmax; key: COC[C@H](C)Nc1ncc2c(-c3ccc(CN4CCN(CCOCCOCCOCCOCCNc5cccc6c5C(=O)N(C5CCC(=O)NC5=O)C6=O)CC4)cc3)cn([C@H]3CC[C@H](O)CC3)c2n1 (some centres unmarked) ; value = > 50%

// field: Dmax; key: Cn1c(=O)n([C@H]2CCC(=O)NC2=O)c2ccc(CCCOCCOCCN3CCN(C[C@H]4CC[C@@H](c5cn([C@H]6CC[C@H](O)CC6)c6nc(NCCC(F)(F)F)ncc65)CC4)CC3)cc21 ; value = > 50%

###

Measured Dmax, listed per entry.
# measured_on: MerTK (Homo sapiens, UniProt Q12866)
# Construct: endogenous in cells; host or cells: Jurkat cells
# assay_info: MerTk degradation in Jurkat cells (Western blot)
# Format: cell-based
# study_conditions: Jurkat, 4 h, 0.001-1 μM, 4 hour-incubation at 37° C., read-out: Jurkat Max % MerTK Degradation
Structures can show the parent of a compound that is named as a salt.

// worked examples, Dmax included
molecule="COc1cc(Nc2nc(N[C@H]3CCCC[C@H]3N)n3ccnc3c2C(N)=O)cc(OCCOCCOCCOCCNc2cccc3c2C(=O)N(C2CCC(=O)NC2=O)C3=O)c1 (some centres unmarked) [I-232]" recorded_endpoint=Dmax reported="< 20%"
molecule="COc1ccc(Nc2nc(Nc3cc(OCCOCCOCCOCCOCCNc4cccc5c4C(=O)N(C4CCC(=O)NC4=O)C5=O)c(OC)cc3C)ncc2Cl)c(NS(C)(=O)=O)c1 (centres unmarked) [I-231]" recorded_endpoint=Dmax reported="< 20%"
molecule="Cc1cc(CNCc2ccc(C(=O)N3CC(C4CCN(Cc5ccc(-c6cn([C@H]7CC[C@H](O)CC7)c7nc(NCCC(F)(F)F)ncc67)cc5)CC4)C3)cc2)ccc1-c1ccc2nn(CC3CC3)cc2c1 [I-191]" recorded_endpoint=Dmax reported="< 20%"
molecule="COC[C@H](C)Nc1ncc2c(-c3ccc(CN4CCN(CCOCCOCCOCCOCCNc5cccc6c5n(C)c(=O)n6C5CCC(=O)NC5=O)CC4)cc3)cn([C@H]3CC[C@H](O)CC3)c2n1 (some centres unmarked) [I-4, bis(formic acid)]" recorded_endpoint=Dmax reported="> 50%"
molecule="CCCCNc1ncc2c(-c3ccc(S(=O)(=O)N4CCN(CCOCCOCCOCCOCCCc5cccc6c5n(C)c(=O)n6C5CCC(=O)NC5=O)CC4)cc3)cn([C@H]3CC[C@H](O)CC3)c2n1 (some centres unmarked) [I-13, formate]" recorded_endpoint=Dmax reported="> 50%"

// assay MerTK (Homo sapiens, UniProt Q12866), entry CCC[C@H](C)Nc1ncc2c(-c3ccc(CN4CCN(C5CC(OCCc6ccc7c(c6)n(C)c(=O)n7C6CCC(=O)NC6=O)C5)CC4)cc3)cn([C@H]3CC[C@@](C)(O)CC3)c2n1 (some centres unmarked) [I-187] , Dmax value = > 50%

// assay MerTK (Homo sapiens, UniProt Q12866), entry Cn1c(=O)n([C@H]2CCC(=O)NC2=O)c2ccc(CCCOCCCN3CCN(Cc4cn([C@H]5CC[C@H](O)CC5)c5nc(NCCC(F)(F)F)ncc45)CC3)cc21 [I-140] , Dmax value = 20 to 50%

// assay MerTK (Homo sapiens, UniProt Q12866), entry C[C@H](Nc1ncc2c(-c3ccc(CN4CCN(CCCOCCCc5ccc6c(c5)n(C)c(=O)n6C5CCC(=O)NC5=O)CC4)cc3)cn([C@H]3CC[C@H](O)CC3)c2n1)C(F)F (some centres unmarked) [I-216] , Dmax value = > 50%

// assay MerTK (Homo sapiens, UniProt Q12866), entry Cn1c(=O)n([C@H]2CCC(=O)NC2=O)c2ccc(CCCOCCCN3CCN(Cc4ccc(-c5cn([C@H]6CC[C@H](O)CC6)c6nc(NC7CC7)ncc56)cc4)CC3)cc21 [I-108, bis(formic acid)] , Dmax value = > 50%

// assay MerTK (Homo sapiens, UniProt Q12866), entry Cn1c(=O)n([C@H]2CCC(=O)NC2=O)c2ccc(CCCOCCCN3CCN(Cc4ccc(-c5cn([C@H]6CC[C@H](O)CC6)c6nc(NCC(F)F)ncc56)cc4)CC3)cc21 [I-100, formic acid] , Dmax value = > 50%

// assay MerTK (Homo sapiens, UniProt Q12866), entry Cn1c(=O)n([C@H]2CCC(=O)NC2=O)c2ccc(CCCOCCOC3CCN(C[C@H]4CC[C@@H](c5cn([C@H]6CC[C@H](O)CC6)c6nc(NCCC(F)(F)F)ncc65)CC4)CC3)cc21 [I-171] , Dmax value = > 50%

// assay MerTK (Homo sapiens, UniProt Q12866), entry Cn1c(=O)n([C@H]2CCC(=O)NC2=O)c2ccc(CCO[C@H]3C[C@@H](N4CCN(Cc5ccc(-c6cn([C@H]7CC[C@H](O)CC7)c7nc(NCCC(F)(F)F)ncc67)cc5)CC4)C3)cc21 [I-143, formic acid] , Dmax value = > 50%

// assay MerTK (Homo sapiens, UniProt Q12866), entry CCCCNc1ncc2c(-c3ccc(CNCCCCOCCCCc4ccc5c(c4)n(C)c(=O)n5[C@H]4CCC(=O)NC4=O)cc3)cn([C@H]3CC[C@H](O)CC3)c2n1 [I-53, hydrochloride] , Dmax value = > 50%

// assay MerTK (Homo sapiens, UniProt Q12866), entry Cn1c(=O)n([C@H]2CCC(=O)NC2=O)c2ccc(CCCOCCOCCN3CCN(Cc4ccc(-c5cn([C@H]6CC[C@H](O)CC6)c6nc(NCCCF)ncc56)cc4)CC3)cc21 [I-88, formic acid] , Dmax value = > 50%

// assay MerTK (Homo sapiens, UniProt Q12866), entry Cc1ncsc1-c1ccc(CNC(=O)[C@@H]2C[C@@H](O)CN2C(=O)[C@@H](NC(=O)COCCOCCN2CCN(Cc3ccc(-c4cn([C@H]5CC[C@H](O)CC5)c5nc(NCCC(F)(F)F)ncc45)cc3)CC2)C(C)(C)C)cc1 [I-165] , Dmax value = < 20%

// assay MerTK (Homo sapiens, UniProt Q12866), entry Cn1c(=O)n([C@H]2CCC(=O)NC2=O)c2ccc(CCCOCCCN3CCN(Cc4ccc(-c5cn([C@H]6CC[C@@](C)(O)CC6)c6nc(NCCC(F)(F)F)ncc56)cc4)CC3)cc21 [I-141] , Dmax value = > 50%

// assay MerTK (Homo sapiens, UniProt Q12866), entry Cn1c(=O)n([C@H]2CCC(=O)NC2=O)c2ccc(CCCOCCCOCCN3CCN(Cc4ccc(-c5cn([C@H]6CC[C@H](O)CC6)c6nc(NCCC7CC7)ncc56)cc4)CC3)cc21 [I-70] , Dmax value = > 50%

// assay MerTK (Homo sapiens, UniProt Q12866), entry Cn1c(=O)n([C@H]2CCC(=O)NC2=O)c2ccc(CCCOCCCCN3CCN(Cc4ccc(-c5cn(C6CCCCC6)c6nc(NCCC(F)(F)F)ncc56)cc4)CC3)cc21 [I-84] , Dmax value = > 50%

// assay MerTK (Homo sapiens, UniProt Q12866), entry Cn1c(=O)n(C2CCC(=O)NC2=O)c2ccc(CN3CCN([C@H]4CCN(Cc5ccc(-c6cn([C@H]7CC[C@H](O)CC7)c7nc(NCCC(F)(F)F)ncc67)cc5)C4)CC3)cc21 (some centres unmarked) [I-158] , Dmax value = > 50%

// assay MerTK (Homo sapiens, UniProt Q12866), entry CCCCNc1ncc2c(-c3ccc(CN4CCN(CCOCCOCCOCCOCCNc5cccc6c5n(C)c(=O)n6C5CCC(=O)NC5=O)CC4)cc3)nn([C@H]3CC[C@H](O)CC3)c2n1 (some centres unmarked) [I-37] , Dmax value = > 50%
